Measured pIC50, listed per entry for reference.
Biological target: human P2X7 receptor (Homo sapiens, UniProt Q99572, R270H/Y155H)
Experiment: Evaluation of human P2X7 receptor inhibitory activity (Yo-Pro uptake, BzATP stimulation, FLIPR TETRA)
Format: cell-based
Details: 1321N1 cells stably expressing human P2X7 receptor; BzATP stimulation, Yo-Pro uptake; read-out: IC50 (antagonistic activity for the human P2X7 receptor), class symbol
Experimental: Stably expressing cell line (1321N1 cell transfected with the human P2X7 receptor gene (GenBank accession number NM_002562.5 including T606C and G952A SNP)) was used. […] Measurement of fluorescence intensity by FLIPR TETRA was started. […] Changing values of fluorescence intensity by the compound of the present invention were calculated by difference between maximum and minimum fluorescence intensity for 20 minutes. Inhibition ratios (%) were calculated from the following equation: […]
pIC50: −log10 of the molar value.
measured.quantity: pIC50

> print(dat)
                                   compound        result
1  COc1cn(Cc2cccc(Cl)c2)c(Nc2cccc3sccc23)nc1=O [Compound I-0484]  7.00 to 8.00
2  COc1cn(Cc2ccc(F)c(Cl)c2)c(Nc2cccc(C)c2C)nc1=O [Compound I-0325]        > 8.00
3  COc1cc(C)cc(Nc2nc(=O)c(OC)cn2Cc2ccc(F)c(Cl)c2)c1C [Compound I-0477]        > 8.00
4  COc1cn(Cc2ccccc2)c(Nc2cc(S(=O)(=O)Nc3ccccc3)c(F)cc2C)nc1=O [Compound I-0415]  6.00 to 6.30
5  COc1cn(Cc2ccc(F)c(Cl)c2)c(Nc2cc(F)c(F)cc2C)nc1=O [Compound I-0360]  7.00 to 8.00
6  CCc1c(Nc2nc(=O)c(OC)cn2Cc2ccccc2)cccc1OC [Compound I-0212]        > 8.00
7  COc1ccc(C)c(Nc2nc(=O)c(OC)cn2Cc2cc(F)cc(Cl)c2)c1 [Compound I-0409]  7.00 to 8.00
8  COc1cn(Cc2cc(F)cc(F)c2)c(Nc2cc(N3CCCS3(=O)=O)ccc2C)nc1=O [Compound I-0552]  7.00 to 8.00

###

Target: human P2X7 receptor (Homo sapiens, UniProt Q99572, R270H/Y155H)
Assay: Evaluation of human P2X7 receptor inhibitory activity (Yo-Pro uptake, BzATP stimulation, FLIPR TETRA)
Format: cell-based
Details: antagonistic activity for the human P2X7 receptor; read-out: IC50
measured.quantity: IC50

> print(dat)
                            compound.smiles                             target.entity   result
1  Cc1cc2c(cc1Nc1nc(=O)c(F)cn1Cc1ccc(F)c(Cl)c1)CCO2  human P2X7 receptor (Homo sapiens, UniProt Q99572, R270H/Y155H)  < 10 nM
2  Cc1cc(Nc2nc(=O)c(F)cn2Cc2cc(F)cc(F)c2)c(C)cc1Cl  human P2X7 receptor (Homo sapiens, UniProt Q99572, R270H/Y155H)  < 10 nM
3  Cc1ccc(CF)cc1Nc1nc(=O)c(F)cn1Cc1cc(F)c(F)c(F)c1  human P2X7 receptor (Homo sapiens, UniProt Q99572, R270H/Y155H)  < 10 nM
4  CCc1ccc(Cl)cc1Nc1nc(=O)c(F)cn1Cc1cc(F)c(F)c(F)c1  human P2X7 receptor (Homo sapiens, UniProt Q99572, R270H/Y155H)  < 10 nM

Where do the numbers come from? From patent US10774051B2.
